- System: bovine viral diarrhea virus (BVDV)
- assay.remarks: anti-BVDV drug screening assay (CPE inhibition, MTS staining)
- Assay type: cell-based
- applied.conditions: Bovine viral diarrhea virus isolates and strains, MDBK, 144 h, read-out: MDBK/BVDV EC50
measured.attribute: pEC50
Please note pEC50 is a logarithmic value: minus log10 of concentration in mol/L. Answer with that number alone.

molecule="Cc1cc(C)cc(C(=O)c2c(C(C)C)c(=O)[nH]c(=O)n2CCC2C=CCC2)c1 (centres unmarked) [Sample 1o]" assay_system="bovine viral diarrhea virus (BVDV)" experimental_result=5.73

Here is the next item to consider.
Name the recorded pEC50 for Cc1cc(C)cc(Oc2c(C(C)C)c(=O)[nH]c(=O)n2CCC2C=CCC2)c1 (centres unmarked) [Sample 1m] . 4.87

###

- assay.remarks: drug toxicity control in uninfected MDBK cells (MTS staining)
- Type: cell-based
- applied.conditions: bovine
Measured CC50 at 6 days values are reported for all entries that follow.

Name the recorded CC50 at 6 days for "CCc1c(Oc2cc(C)cc(C)c2)n(CC2CC2)c(=O)[nH]c1=O" . > 100 µM

Moving on to "Cc1cc(C)cc(Sc2c(C(C)C)c(=O)[nH]c(=O)n2CC2CCCC2)c1" > 50 µM

Moving on to CCc1c(C(=O)c2cc(C)cc(C)c2)n(CC2=CCC(CO)C2)c(=O)[nH]c1=O (stereo not drawn) 66 µM

Moving on to "CC(C)c1c(Sc2ccccc2)n(CC2CC=CC2)c(=O)[nH]c1=O" > 50 µM

Moving on to "Cc1cc(C)cc(C(=O)c2c(C(C)C)c(=O)[nH]c(=O)n2CC2=CCCC2)c1" 20.5 µM

Moving on to "CCc1c(C(=O)c2cc(C)cc(C)c2)n(CC2=CCCC2)c(=O)[nH]c1=O" 17.1 µM

###

- Tested on: bovine viral diarrhea virus (BVDV)
- assay.remarks: anti-BVDV drug screening assay (CPE inhibition, MTS staining)
- Assay type: cell-based
- applied.conditions: therapeutic index, MDBK TC50 / BVDV EC50
Values of TI (TC50/EC50) greater than or equal to 5 map to condition met; values below map to condition not met.

compound="Cc1cc(C)cc(C(=O)c2c(C(C)C)c(=O)[nH]c(=O)n2CCC2C=CCC2)c1 (stereo not shown)" label_class="condition not met"
compound=Cc1cc(C)cc(C(=O)c2c(C(C)C)c(=O)[nH]c(=O)n2CC2=CCCC2)c1 label_class="condition met"
compound="NC(=O)c1ncn([C@@H]2O[C@H](CO)[C@@H](O)[C@H]2O)n1 [Ribavirin, reference compound]" label_class="condition not met"
compound=Cc1cc(C)cc(Sc2c(C(C)C)c(=O)[nH]c(=O)n2CC2CC2)c1 label_class="condition not met"
compound=Cc1cc(C)cc(Sc2c(C(C)C)c(=O)[nH]c(=O)n2CC2CCC2)c1 label_class="condition not met"
compound=CCc1c(Oc2cc(C)cc(C)c2)n(CC2=CCCC2)c(=O)[nH]c1=O label_class="condition met"

Assess whether reported TI (TC50/EC50) for "CCc1c(Oc2cc(C)cc(C)c2)n(CC2CC2)c(=O)[nH]c1=O" sits at 5 or higher. condition met

Moving on to "CCc1c(C(=O)c2cc(C)cc(C)c2)n(CC2=CCCC2)c(=O)[nH]c1=O" condition not met

###

- assay.remarks: drug toxicity control in uninfected MDBK cells (MTS staining)
- Format: cell-based
- applied.conditions: bovine
measured.attribute: CC50 at 6 days (µM)
State the answer as a number, implicitly in µM.

compound=Cc1cc(C)cc(Sc2c(C(C)C)c(=O)[nH]c(=O)n2CC2CCC2)c1 measured_attribute="CC50 at 6 days" uom=µM experimental_result=6.6
compound=Cc1cc(C)cc(Sc2c(C(C)C)c(=O)[nH]c(=O)n2CC2CCCCC2)c1 measured_attribute="CC50 at 6 days" uom=µM experimental_result=6.6
compound="Cc1cc(C)cc(C(=O)c2c(C(C)C)c(=O)[nH]c(=O)n2CCC2C=CCC2)c1 (stereo not drawn)" measured_attribute="CC50 at 6 days" uom=µM experimental_result=6.94

Here is the next item to consider.
Name the recorded CC50 at 6 days for "Cc1cc(C)cc(Sc2c(C(C)C)c(=O)[nH]c(=O)n2CC2CC2)c1" . 6.6

###

- Tested on: bovine viral diarrhea virus (BVDV)
- assay.remarks: anti-BVDV drug screening assay (CPE inhibition, MTS staining)
- Format: cell-based
- applied.conditions: therapeutic index, MDBK TC50 / BVDV EC50
measured.attribute: TI (TC50/EC50)

Below, each entry is followed by its recorded TI (TC50/EC50) result.
molecule=Cc1cc(C)cc(Oc2c(C(C)C)c(=O)[nH]c(=O)n2CC2=CCCC2)c1 measured_attribute="TI (TC50/EC50)" experimental_result=>2.5
molecule=CC(C)c1c(Sc2ccccc2)n(CC2CC=CC2)c(=O)[nH]c1=O measured_attribute="TI (TC50/EC50)" experimental_result=>3.7
molecule="Cc1cc(C)cc(Oc2c(C(C)C)c(=O)[nH]c(=O)n2CCC2C=CCC2)c1 (centres unmarked)" measured_attribute="TI (TC50/EC50)" experimental_result=>3.7
molecule="CCc1c(C(=O)c2cc(C)cc(C)c2)n(CC2=CCC(CO)C2)c(=O)[nH]c1=O (centres unmarked)" measured_attribute="TI (TC50/EC50)" experimental_result=5.11
molecule=Cc1cc(C)cc(Sc2c(C(C)C)c(=O)[nH]c(=O)n2CC2=CCCC2)c1 measured_attribute="TI (TC50/EC50)" experimental_result=>4.9

Name the recorded TI (TC50/EC50) for "Cc1cc(C)cc(Sc2c(C(C)C)c(=O)[nH]c(=O)n2CC2CCCC2)c1" . >3.7

Moving on to "Cc1cc(C)cc(Sc2c(C(C)C)c(=O)[nH]c(=O)n2CCC2CCCC2)c1" >3.6

Moving on to "Cc1cc(C)cc(Sc2c(C(C)C)c(=O)[nH]c(=O)n2CC2CCCCC2)c1" 5.11

###

- assay.remarks: drug toxicity control in uninfected MDBK cells (MTS staining)
- Format: cell-based
- applied.conditions: bovine
- Procedure: One day before the screening, MDBK cell line (Mardin-Darby bovine kidney, ATTC CCL22) which had been subcultured previously was trypsinized and spread on a plate, followed by counting the cell colonies formed. […] The well-plate had been placed in a 5% CO2 incubator at 37° C. for 6 days, and then, analyzed with Cell Proliferation Assay kit (CellTiter96® AQUEOUS one solution, Promega). […]
measured.attribute: CC50 at 6 days

compound="Cc1cc(C)cc(Oc2c(C(C)C)c(=O)[nH]c(=O)n2CCC2C=CCC2)c1 (centres unmarked)" measured_attribute="CC50 at 6 days" experimental_result="> 50 µM"
compound=Cc1cc(C)cc(Sc2c(C(C)C)c(=O)[nH]c(=O)n2CC2=CCCC2)c1 measured_attribute="CC50 at 6 days" experimental_result="> 50 µM"
compound=Cc1cc(C)cc(Sc2c(C(C)C)c(=O)[nH]c(=O)n2CCC2CCCC2)c1 measured_attribute="CC50 at 6 days" experimental_result="> 50 µM"
compound=Cc1cc(C)cc(Oc2c(C(C)C)c(=O)[nH]c(=O)n2CC2=CCCC2)c1 measured_attribute="CC50 at 6 days" experimental_result="> 50 µM"

Here is the next item to consider.
Name the recorded CC50 at 6 days for "CCc1c(Oc2cc(C)cc(C)c2)n(CC2=CCCC2)c(=O)[nH]c1=O" . > 100 µM

Data provenance is patent US7851479B2.
